tested on: DU145; test: Euclidean distance of Cell Painting phenotypic profile (signed KS, 77 features) to DMSO centroid (dimensionless distance); 5 or 10 uM (library dependent); higher = stronger phenotypic change vs DMSO (phenoactivity); settings: 48 h
Structures can show the parent of a compound that is named as a salt.
Exercise: for every item that follows, state its recorded Euclidean distance.
Please state the value as a number alone, without comment.

Write down Euclidean distance measured for item O=C1c2c(O)ccc(O)c2C(=O)c2c(NCCNCCO)ccc(NCCNCCO)c21 [Mitoxantrone HCl]
3.24

Write down Euclidean distance measured for item C=C[C@@H]1C[C@]1(NC(=O)[C@@H]1C[C@@H](Oc2ncc(OC)c3ccc(Cl)cc23)CN1C(=O)[C@@H](NC(=O)OC(C)(C)C)C(C)(C)C)C(=O)NS(=O)(=O)C1CC1 [Asunaprevir]
0.966

Write down Euclidean distance measured for item CN(C)CCCCC(=O)Nc1ccc(NC(=S)NC(=O)c2ccc(C(C)(C)C)cc2)cc1 [Tenovin-6]
1.61

Write down Euclidean distance measured for item O=c1oc2cc(O)ccc2s1 [Tioxolone]
0.857

Write down Euclidean distance measured for item CO/N=C(\C(=O)N[C@@H]1C(=O)N2C(C(=O)O)=C(CSc3nc(C)c(CC(=O)O)s3)CS[C@H]12)c1csc(N)n1 [Cefodizime Sodium]
1.48

Write down Euclidean distance measured for item C[C@@H](O)[C@H]1C(=O)N2C(C(=O)O)=C(S[C@@H]3CN[C@H](C(=O)N(C)C)C3)[C@H](C)[C@H]12 [Meropenem]
0.873

Write down Euclidean distance measured for item CN1CCN(C2CCN(C(=O)Nc3cc(Oc4ccc(NC(=O)C5(C(=O)Nc6ccc(F)cc6)CC5)c(F)c4)ccn3)CC2)CC1 [Golvatinib (E7050)]
1.32

Write down Euclidean distance measured for item NC(=O)c1ccccc1O [Salicylamide]
1.56

Write down Euclidean distance measured for item O=C(O)CCCCCCCC(=O)O [Azelaic acid]
0.798

Write down Euclidean distance measured for item CCN(CC)CCCC(C)Nc1nc(C)cc(Nc2ccc3nc(C)cc(N)c3c2)n1 (configuration not stated)
0.753

Write down Euclidean distance measured for item O=C(O[C@@H]1Cc2c(O)cc(O)cc2O[C@@H]1c1cc(O)c(O)c(O)c1)c1cc(O)c(O)c(O)c1 [(-)-Epigallocatechin Gallate]
1.33

Write down Euclidean distance measured for item OC(CCN1CCCCC1)(c1ccccc1)C1CC2C=CC1C2 (configuration not stated) [Biperiden HCl]
0.98
